apparent KD of MS2 coat protein: recorded values
- Tested on: MS2 coat protein
- Test Details: apparent KD of MS2 coat protein; higher = weaker reporter binding
- Condition Parameters: Eterna round: R107; input ligand: theophylline 2 mM
Record the value in nM, omitting the unit from your answer.

Recorded apparent KD of MS2 coat protein, per entry:
| Seq String | apparent KD of MS2 coat protein (nM) |
| --- | --- |
| GCCCUGCGCCCGGGACCGGCAAGAUCCAUGCGAGGACCGGUACGGCCGCCACUCGCAGACGUACAUGAGGAUCACCCAUGUCCUC [theeternabot_exclusion_MS2_Trp_A_24] | 867 |
| AGCACUGUGACGGCCGCCACUACAUAAGAUGGGUGGUCAGGUUCAUUACAUGAGGAUCACCCAUGUAGGACCGGGUCUCAGUGCA [Omei Trp Exc B A v10] | 10.9 |
| UAACAUGAGGAUCACCCAUGUUUGAAGGAACGAGGACCGGUACGGCCGCCACUCGACGAGUGGAUGAGAAGUGGGCUUGUGUGCU [Same State Trp A GF9] | 13 |
| UCGUUAUGGUCGGCCGCCACUCGCGGAGAGCAUAGCUCAAACAUGAGGAUCACCCAUGUAUCAUGGAGGACCGGGACCAUAACGU [Rxmullin variation #StaticStem] | 42.7 |
| GGUUGGUGUAGAGAUAUAUUGAUUACUGAAGGAGCGGGAAAUAACCCAGGUAGGUCGCAGAGAUCCACAUGAGGAUCACCCAUGU [!0.K] | 36.9 |

Here is another sequence to look at.
Retrieve apparent KD of MS2 coat protein measured for UCAGUGGGUUCGGCCGCCACUUGAGUGAUGGUGCCUCAAUAAGUCUACAUGAGGAUCACCCAUGUAAGGACCGGGAAUUUUAUGG [theeternabot_exclusion_MS2_Trp_B_19] and print it.
43.2

====

- Test system: MS2 coat protein
- Test Details: apparent KD of MS2 coat protein; higher = weaker reporter binding
- Condition Parameters: Eterna round: R107; input ligand: theophylline 20 uM
Reported Property: apparent KD of MS2 coat protein (nM)
The answer is to be given in nM; state only the numeric part.

A selection of reference data follows.
Seq String	Reported Property	Measurement
UGUCAGCGAAAGUUGACAUGCAGUGCCGGUCGAGGACCGGUACGGCCGCCACUCGAUCUCUCGUACAUGAGGAUCACCCAUGUCG [SS Tryp A #19]	apparent KD of MS2 coat protein	16.6
UCGGACAUGAGGAUCACCCAUGUAAAUCCUCGAGGACCGGUACGGCCGCCACUCGAACGAGUGGCGCGCGAGCGCGCGCUCGCGC [aGa]	apparent KD of MS2 coat protein	67.7
GCCGCUGCCGCGAUAUGUAUGGGUGUGUAACGAGGACCGGUACGGCCGCCACUCGCGAUCGCACAUGAGGAUCACCCAUGUGUCC [Exclusion Tryp A GF18]	apparent KD of MS2 coat protein	72.4
GGCACGUACGGAAGGAGCGACUGUUCGACGUGGGUACAUGAGGAUCACCCAUGUCUCCGCAGUCAGGUAGGUCGCCGUACGUGCC [EAB NP+V+V2 #21 +-Same Structure]	apparent KD of MS2 coat protein	63.6
AGCCUAUUACAUGAGGAUCACCCAUGUGAUACCAGUCAGGAAACUGACCCUUGGCAGCGCAUGAGGAUCACCCAUGCGCGAGGCA [Omei Theo A Exc A v4]	apparent KD of MS2 coat protein	12.9

Lab note: record apparent KD of MS2 coat protein of UAAUAGGUCCAGAACGUACCAGGUGAUCAACGAGGACCGGUACGGCCGCCACUCGAAACAUGAGGAUCACCCAUGUAACUGGACC [|T'-M'-Trp-Ms2|_Design 2_ML] tested on MS2 coat protein.
95.3
